# Test system: 454973-116-R2-J3-PDC spheroids, viability, % test/control;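 note: spheroids exposed to compounds for seven days; 100% = DMSO vehicle control viability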
# assay.text: Anticancer human tumor 454973-116-R2-J3-PDC patient-derived pancreatic carcinoma cell line growth inhibition [GQUAD]
# condition.parameters: second compound 0.1 µM; first compound 0.1 µM; hits give low values; spheroids with HUVEC and MSC
property.label: viability, T/C (%)
Answer format: numeric, % implied, no suffix.

Under 454973-116-R2-J3-PDC spheroids, viability, % test/control: report viability, T/C of CC(=O)O[C@H]1C(=O)[C@@]2(C)[C@H]([C@H](OC(=O)c3ccccc3)[C@]3(O)C[C@H](OC(=O)[C@H](O)[C@@H](NC(=O)c4ccccc4)c4ccccc4)C(C)=C1C3(C)C)[C@]1(OC(C)=O)CO[C@@H]1C[C@@H]2O + CN(C)c1ccc(Nc2c3ccc(NC(=O)CCN4CCCC4)cc3nc3cc(NC(=O)CCN4CCCC4)ccc23)cc1 .
11.7

Under 454973-116-R2-J3-PDC spheroids, viability, % test/control: report viability, T/C of COc1cc(C2c3cc4c(cc3C(OC3OC5COC(C)OC5C(O)C3O)C3COC(=O)C23)OCO4)cc(OC)c1O (centres undefined) + CN(C)c1ccc(Nc2c3ccc(NC(=O)CCN4CCCC4)cc3nc3cc(NC(=O)CCN4CCCC4)ccc23)cc1 .
98.7

Under 454973-116-R2-J3-PDC spheroids, viability, % test/control: report viability, T/C of COc1cc(C2c3cc4c(cc3C(OC3OC5COC(C)OC5C(O)C3O)C3COC(=O)C23)OCO4)cc(OC)c1O (centres undefined) + Cc1cnc(CNC(=O)c2c(=O)c3ccc(N4CCCN(C)CC4)nc3n3c2sc2ccccc23)cn1 .
73.7

Under 454973-116-R2-J3-PDC spheroids, viability, % test/control: report viability, T/C of O=C(NO)c1cnc(N2CCN(S(=O)(=O)c3ccc4ccccc4c3)CC2)nc1 + Cc1cnc(CNC(=O)c2c(=O)c3ccc(N4CCCN(C)CC4)nc3n3c2sc2ccccc23)cn1 .
68.6

Data provenance: PubChem BioAssay AID2060508
